Values compiled from ChEMBL document CHEMBL3045001.

- System: Mus musculus
- ASSAY OVERVIEW: Analgesic activity in Mus musculus Swiss albino (mouse) assessed as inhibition of p-benzoquinone-induced abdominal writhing at 100 mg/kg, sc administered 30 min prior to PBQ injection measured after 5 min for 15 min
- Assay type: functional, Abdomen
- Set-up: scale not given: the % may be the effect or the level left
- CONDITION PARAMETERS: route subcutaneous
// F strictly below 60% in Activity; T otherwise

MOLECULE	CATEGORY
CC(=O)Oc1ccccc1C(=O)O [ASPIRIN]	T
Cc1ccc(-c2cc(C(=O)NNc3ccc4ccccc4n3)n(Cc3ccccc3)n2)cc1	F
Cc1ccc(-c2cc(C(=O)Oc3ccc(Oc4ccc(C(F)(F)F)cc4)cc3)n(Cc3ccccc3)n2)cc1	F
CCOC(=O)C1CCN(C(=O)c2cc(-c3ccc(C)cc3)nn2Cc2ccccc2)CC1	T
